Target: T1, TNFR1 (Homo sapiens, UniProt P19438)
T1 chain: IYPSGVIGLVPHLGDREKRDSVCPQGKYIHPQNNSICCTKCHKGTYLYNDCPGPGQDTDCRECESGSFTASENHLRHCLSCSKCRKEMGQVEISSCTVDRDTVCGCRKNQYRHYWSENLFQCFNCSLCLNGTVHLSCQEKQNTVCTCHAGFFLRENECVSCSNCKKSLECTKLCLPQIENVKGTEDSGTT
Assay: yeast display SC50
RESULT TYPE: apparent Kd (screen) (nM)

Below are worked cases with known answers.
BINDER: A35N (designed binder) SMEEEVEKAAKEYEKKKKEAIEKHLEKLKAKDKENAERFLKELEEAAKEYAKDEAKTMSEEEAKRRAKKYKEKVLLSELSEEEQKEIKEAEEKLVRTILKYVEEAAK
apparent Kd (screen) / nM: 1.69
//
BINDER: V95D (designed binder) SMEEEVEKAAKEYEKKKKEAIEKHLEKLKAKDKEAAERFLKELEEAAKEYAKDEAKTMSEEEAKRRAKKYKEKVLLSELSEEEQKEIKEAEEKLDRTILKYVEEAAK
apparent Kd (screen) / nM: 5.84
//
BINDER: K33E (designed binder) SMEEEVEKAAKEYEKKKKEAIEKHLEKLKAKDEEAAERFLKELEEAAKEYAKDEAKTMSEEEAKRRAKKYKEKVLLSELSEEEQKEIKEAEEKLVRTILKYVEEAAK
apparent Kd (screen) / nM: 0.539
//
BINDER: K41F (designed binder) SMEEEVEKAAKEYEKKKKEAIEKHLEKLKAKDKEAAERFLFELEEAAKEYAKDEAKTMSEEEAKRRAKKYKEKVLLSELSEEEQKEIKEAEEKLVRTILKYVEEAAK
apparent Kd (screen) / nM: 0.718
//
BINDER: A67P (designed binder) SMEEEVEKAAKEYEKKKKEAIEKHLEKLKAKDKEAAERFLKELEEAAKEYAKDEAKTMSEEEAKRRPKKYKEKVLLSELSEEEQKEIKEAEEKLVRTILKYVEEAAK
apparent Kd (screen) / nM: 0.593

1 = K64Y (designed binder) SMEEEVEKAAKEYEKKKKEAIEKHLEKLKAKDKEAAERFLKELEEAAKEYAKDEAKTMSEEEAYRRAKKYKEKVLLSELSEEEQKEIKEAEEKLVRTILKYVEEAAK
2 = V74R (designed binder) SMEEEVEKAAKEYEKKKKEAIEKHLEKLKAKDKEAAERFLKELEEAAKEYAKDEAKTMSEEEAKRRAKKYKEKRLLSELSEEEQKEIKEAEEKLVRTILKYVEEAAK
Input: Please let me know which one, 1 or 2 , has a lower measured apparent Kd (screen) value. Label of pick, please.
Output: 1

P = K15D (designed binder) SMEEEVEKAAKEYEDKKKEAIEKHLEKLKAKDKEAAERFLKELEEAAKEYAKDEAKTMSEEEAKRRAKKYKEKVLLSELSEEEQKEIKEAEEKLVRTILKYVEEAAK
Q = S77T (designed binder) SMEEEVEKAAKEYEKKKKEAIEKHLEKLKAKDKEAAERFLKELEEAAKEYAKDEAKTMSEEEAKRRAKKYKEKVLLTELSEEEQKEIKEAEEKLVRTILKYVEEAAK
Input: Please let me know which one, P or Q , has a lower measured apparent Kd (screen) value. Label of pick, please.
Output: P
(P: 0.653 nM, Q: 2.25 nM)

A = K64M (designed binder) SMEEEVEKAAKEYEKKKKEAIEKHLEKLKAKDKEAAERFLKELEEAAKEYAKDEAKTMSEEEAMRRAKKYKEKVLLSELSEEEQKEIKEAEEKLVRTILKYVEEAAK
B = E92W (designed binder) SMEEEVEKAAKEYEKKKKEAIEKHLEKLKAKDKEAAERFLKELEEAAKEYAKDEAKTMSEEEAKRRAKKYKEKVLLSELSEEEQKEIKEAEWKLVRTILKYVEEAAK
Input: Please let me know which one, A or B , has a lower measured apparent Kd (screen) value. Label of pick, please.
Output: A
(A: 0.653 nM, B: 10.4 nM)

a = K11I (designed binder) SMEEEVEKAAIEYEKKKKEAIEKHLEKLKAKDKEAAERFLKELEEAAKEYAKDEAKTMSEEEAKRRAKKYKEKVLLSELSEEEQKEIKEAEEKLVRTILKYVEEAAK
b = K88P (designed binder) SMEEEVEKAAKEYEKKKKEAIEKHLEKLKAKDKEAAERFLKELEEAAKEYAKDEAKTMSEEEAKRRAKKYKEKVLLSELSEEEQKEIPEAEEKLVRTILKYVEEAAK
c = A46I (designed binder) SMEEEVEKAAKEYEKKKKEAIEKHLEKLKAKDKEAAERFLKELEEIAKEYAKDEAKTMSEEEAKRRAKKYKEKVLLSELSEEEQKEIKEAEEKLVRTILKYVEEAAK
Input: Hey, quick one: sort these by apparent Kd (screen), low to high? The labels, placed in the requested order, form the answer.
Output: a, c, b
(a: 0.539 nM, c: 3 nM, b: 7.78 nM)
